Molecular target: Neuropeptide Y receptor type 1 (Homo sapiens) (UniProt P25929)
Sequence (P25929 whole entry, looked up): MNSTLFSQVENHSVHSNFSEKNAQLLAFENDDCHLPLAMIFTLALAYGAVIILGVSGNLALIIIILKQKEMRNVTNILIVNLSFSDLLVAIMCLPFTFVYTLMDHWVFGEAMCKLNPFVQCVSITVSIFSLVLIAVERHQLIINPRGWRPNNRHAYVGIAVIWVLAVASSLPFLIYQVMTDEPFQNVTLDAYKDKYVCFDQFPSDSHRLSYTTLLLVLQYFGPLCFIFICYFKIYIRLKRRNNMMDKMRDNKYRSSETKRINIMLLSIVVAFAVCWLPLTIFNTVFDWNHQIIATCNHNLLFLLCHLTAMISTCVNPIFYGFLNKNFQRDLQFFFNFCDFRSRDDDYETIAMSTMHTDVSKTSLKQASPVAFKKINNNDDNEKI
Assay: NPY-Y1 receptor antagonists, retest of hits, confirmation, HEK293-CNG cells, membrane potential fluorescence, triplicate (AID 1254)
Conditions: cAMP, at 3.6 µM, NPY challenge against isoproterenol-raised cAMP
Hit rate of the full screen: of about 1,200 compounds, about 250 (21%) were called active. Cut-off read from the data, not from the text of the source: active = inhibition above about 20%; inactive = the rest. Not all results are given here.
Tick one outcome: T (active), F (inactive)

I would be grateful if you could indicate the recorded call for c1ccc2c(NC3C4CC5CC(C4)CC3C5)nc(N3CCOCC3)nc2c1 (stereo unspecified) .
T

For this compound, state the assay outcome: CC1CN(CCCOc2ccccc2-c2ccccc2)CC(C)O1 (stereo unspecified)
F

Could you check what this test reported for CCc1ccc(CNC(=O)C2CCCN(c3nc4ccccc4o3)C2)cc1 (stereo unspecified) ?
F

Give the logged outcome of this assay for the following compound: COc1ccc(C2Nc3ccccc3C(=O)N2Cc2ccccc2)cc1Cn1nnc2ccccc21 (stereo unspecified)
F

So what was the verdict on CCOC(=O)N1CCN(S(=O)(=O)c2ccc(C(=O)Nc3ccc(F)cc3F)cc2)CC1 in this test?
F

So what was the verdict on CC(Nc1nc(N2CCN(CCO)CC2)nc2ccccc12)c1ccccc1 (stereo unspecified) in this test?
F

GET /call?item= CS(=O)(=O)N1CCCC(C(=O)N2CCOCC2)C1 (stereo unspecified) returns the recorded outcome of this test.
F

Can you look up the reported call for Cc1ccc(N2C(=O)C3N=NN(CC(=O)N4N=C(c5cccc6ccccc56)CC4c4ccccc4)C3C2=O)cc1 (stereo unspecified) for me?
F

Hi, sorry to bother you, what did the test record for CC(C)(C)NCc1cc(Br)ccc1OC1CCCC1 ?
T

Which outcome was assigned to Cc1ccc2nc(-c3ccccn3)cc(C(=O)Nc3ccc4c(c3)OCO4)c2c1 in this test?
T

Short answer needed: outcome of this test for C/C(=N\NC(=S)NCc1ccccc1)c1ccc(Cl)cc1 ?
F
